Would you mind telling me the reported Phospho-SMAD3 Human Skeletal Muscle GDF8 of each entry?
# system-tested: ACVR2A on primary human myotubes (human, UniProt P27037 20-513)
# Sequence (P27037 20-513): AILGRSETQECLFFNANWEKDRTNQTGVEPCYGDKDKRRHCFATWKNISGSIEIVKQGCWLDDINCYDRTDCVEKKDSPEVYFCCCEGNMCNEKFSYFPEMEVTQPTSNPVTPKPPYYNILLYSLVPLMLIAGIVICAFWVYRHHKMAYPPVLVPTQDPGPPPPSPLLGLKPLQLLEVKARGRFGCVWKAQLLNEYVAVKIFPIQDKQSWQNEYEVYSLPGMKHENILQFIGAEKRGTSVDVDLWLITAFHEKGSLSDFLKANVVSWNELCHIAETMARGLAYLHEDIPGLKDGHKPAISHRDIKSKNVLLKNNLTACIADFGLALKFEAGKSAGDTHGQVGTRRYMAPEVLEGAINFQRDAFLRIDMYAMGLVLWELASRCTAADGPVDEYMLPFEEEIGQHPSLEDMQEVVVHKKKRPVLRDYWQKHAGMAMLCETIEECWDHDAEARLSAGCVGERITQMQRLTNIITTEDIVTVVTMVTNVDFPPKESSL
# test-description: cell-based or functional assay
Give bare numbers.

These recorded examples may help you get a feel for the data.
# binder, assay-value
records = [
    ("373_H03 (antibody, V domains shown) VH: EVQLLESGGGLVQPGGSLRLSCAASGFTFSSYSMNWVRQAPGKGLEWVSGINYNSGYKSYADSVKGRFTISRDNSKNTLYLQMNSLRAEDTAVYYCARGANWHDTALDYWGQGTLVTVSS VL: DIQMTQSPSSLSASVGDRVTITCRASQSILSYLNWYQQKPGKAPKLLIYATTSRASGVPSRFSGSGSGTDFTLTISSLQPEDFATYYCQQSYENPLTFGGGTKVEIK", 0.0129),
    ("367_A02 (antibody, V domains shown) VH: EVQLLESGGGLVQPGGSLRLSCAASGFTFDSYGMNWVRQAPGKGLEWVSSINYNSGYKGYADSVKGRFTISRDNSKNTLYLQMNSLRAEDTAVYYCARGATWHDTHLDYWGQGTLVTVSS VL: DIQMTQSPSSLSASVGDRVTITCRASQSIISYLNWYQQKPGKAPKLLIYAVTSRASGVPSRFSGSGSGTDFTLTISSLQPEDFATYYCQQSYDTPLTFGGGTKVEIK", 0.159),
    ("368_G03 (antibody, V domains shown) VH: EVQLLESGGGLVQPGGSLRLSCAASGFTFSSYSMNWVRQAPGKGLEWVSGINYNSGYTSYADSVKGRFTISRDNSKNTLYLQMNSLRAEDTAVYYCARGATWHDTALDYWGQGTLVTVSS VL: DIQMTQSPSSLSASVGDRVTITCRASQSILSYLNWYQQKPGKAPKLVIYAATSRASGVPSRFSGSGSGTDFTLTISSLQPEDFATYYCQQSYDTPLTFGGGTKVEIK", 0.299),
    ("371_F09 (antibody, V domains shown) VH: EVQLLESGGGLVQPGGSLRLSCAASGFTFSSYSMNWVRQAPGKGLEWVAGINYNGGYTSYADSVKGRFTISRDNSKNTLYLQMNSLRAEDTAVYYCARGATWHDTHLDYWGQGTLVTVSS VL: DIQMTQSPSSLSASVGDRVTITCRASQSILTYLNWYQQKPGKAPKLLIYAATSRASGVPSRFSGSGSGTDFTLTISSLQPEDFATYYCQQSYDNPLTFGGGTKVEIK", 0.0311),
]

Attention now shifts to the item below.
Look up Phospho-SMAD3 Human Skeletal Muscle GDF8 for this binder: 373_C07 (antibody, V domains shown) VH: EVQLLESGGGLVQPGGSLRLSCAASGFTFDSYSMNWVRQAPGKGLEWVAGINYNSGYTSYADSVKGRFTISRDNSKNTLYLQMNSLRAEDTAVYYCARGANWHDTHLDYWGQGTLVTVSS VL: DIQMTQSPSSLSASVGDRVTITCRASQSILTYLNWYQQKPGKAPKLVIYAATSRASGVPSRFSGSGSGTDFTLTISSLQPEDFATYYCQQSYETPLTFGGGTKVEIK
0.0048
